System: Pseudomonas aeruginosa
ASSAY PROTOCOL: Antibacterial activity against 10^8 CFU/mL Pseudomonas aeruginosa MTCC 1688 by broth microdilution method
Format: functional
Lab note: compare MIC99 with 200 µg/mL, writing 1 if less and 0 if equal or more.

In [3]: df
Out[3]:
                                    molecule  assigned_class
 0  CC1=C(c2nnc(/N=C3\C(=O)Nc4ccc(I)cc43)s2)C(c2ccccc2)NC(=O)N1 (stereo unspecified)               0
 1  CC1=C(c2nnc(/N=C3\C(=O)Nc4ccc([N+](=O)[O-])cc43)s2)C(c2ccccc2)NC(=S)N1 (stereo unspecified)               1
 2  O=C(N[C@H](CO)[C@H](O)c1ccc([N+](=O)[O-])cc1)C(Cl)Cl               1
 3  CC1=C(c2nnc(/N=C3\C(=O)Nc4ccc([N+](=O)[O-])cc43)s2)C(c2ccccc2)NC(=O)N1 (stereo unspecified)               1
 4  CC1=C(c2nnc(/N=C3\C(=O)Nc4ccc(Br)cc43)s2)C(c2ccccc2)NC(=O)N1 (stereo unspecified)               0
 5  CC1=C(c2nnc(/N=C3\C(=O)Nc4ccccc43)s2)C(c2ccccc2)NC(=O)N1 (stereo unspecified)               0
 6  O=C(O)c1cn(C2CC2)c2cc(N3CCNCC3)c(F)cc2c1=O               1
 7  CC1=C(c2nnc(/N=C3\C(=O)Nc4ccc(F)cc43)s2)C(c2ccccc2)NC(=O)N1 (stereo unspecified)               1
 8  CC1=C(c2nnc(/N=C3\C(=O)Nc4ccc(I)cc43)s2)C(c2ccccc2)NC(=S)N1 (stereo unspecified)               0
 9  CC1(C)S[C@@H]2[C@H](NC(=O)[C@H](N)c3ccccc3)C(=O)N2[C@H]1C(=O)O               1
10  CC1=C(c2nnc(/N=C3\C(=O)Nc4ccc(Cl)cc43)s2)C(c2ccccc2)NC(=S)N1 (stereo unspecified)               1
11  CC1=C(c2nnc(/N=C3\C(=O)Nc4ccc(F)cc43)s2)C(c2ccccc2)NC(=S)N1 (stereo unspecified)               1
12  CCn1cc(C(=O)O)c(=O)c2cc(F)c(N3CCNCC3)cc21               1

---

# Lookup of reported MIC keyed by entry
Tested on: Aspergillus clavatus
ASSAY PROTOCOL: Antifungal activity against 10^8 CFU/mL Aspergillus clavatus MTCC 1323 by broth microdilution method
Format: functional
MEASUREMENT KIND: MIC

>>> print(df.to_string())
                                   compound  measurement_kind  result_value
0  CC1=C(c2nnc(/N=C3\C(=O)Nc4ccc(I)cc43)s2)C(c2ccccc2)NC(=S)N1 (stereo not drawn)               MIC  > 1000 µg/mL
1  CC1=C(c2nnc(/N=C3\C(=O)Nc4ccc(Br)cc43)s2)C(c2ccccc2)NC(=O)N1 (stereo not drawn)               MIC  > 1000 µg/mL
2  CC1=C(c2nnc(/N=C3\C(=O)Nc4ccc(I)cc43)s2)C(c2ccccc2)NC(=O)N1 (stereo not drawn)               MIC  > 1000 µg/mL

---

Test system: Pseudomonas aeruginosa
ASSAY PROTOCOL: Antibacterial activity against 10^8 CFU/mL Pseudomonas aeruginosa MTCC 1688 by broth microdilution method
Assay type: functional
# Lookup of reported MIC99 keyed by entry
MEASUREMENT KIND: MIC99

                                   compound          assayed_system  result_value
0  CC1=C(c2nnc(/N=C3\C(=O)Nc4ccc(Cl)cc43)s2)C(c2ccccc2)NC(=O)N1 (stereo not drawn)  Pseudomonas aeruginosa     200 µg/mL
1  CC1=C(c2nnc(/N=C3\C(=O)Nc4ccccc43)s2)C(c2ccccc2)NC(=S)N1 (stereo not drawn)  Pseudomonas aeruginosa     200 µg/mL
2  CC1=C(c2nnc(/N=C3\C(=O)Nc4ccc(Br)cc43)s2)C(c2ccccc2)NC(=S)N1 (stereo not drawn)  Pseudomonas aeruginosa     200 µg/mL
